Cited source for all entries: PubChem BioAssay AID2060485

Please provide measured viability, T/C for the entries that follow.
test system: A375 multi-cell spheroids with HUVEC/MSC, viability; test: Anticancer human tumor A375 cell line growth inhibition [GQUAD]; settings: second compound 0.316 µM; first compound 0.1 µM; active compounds read low;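 note: spheroids exposed to compounds for seven days before readout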
Note: unit % is implicit; provide only the numeric part.

Look at this compound and give its reported viability, T/C. COc1cccc2c1C(=O)c1c(O)c3c(c(O)c1C2=O)CC(O)(C(=O)CO)CC3OC1CC(N)C(O)C(C)O1 (stereo not given) + CN(C)c1ccc(Nc2c3ccc(NC(=O)CCN4CCCC4)cc3nc3cc(NC(=O)CCN4CCCC4)ccc23)cc1
79.7

Look at this compound and give its reported viability, T/C. COc1cccc2c1C(=O)c1c(O)c3c(c(O)c1C2=O)CC(O)(C(=O)CO)CC3OC1CC(N)C(O)C(C)O1 (stereo not given) + Cc1cnc(CNC(=O)c2c(=O)c3ccc(N4CCCN(C)CC4)nc3n3c2sc2ccccc23)cn1
33.4

Look at this compound and give its reported viability, T/C. CCCS(=O)(=O)Nc1ccc(F)c(C(=O)c2c[nH]c3ncc(-c4ccc(Cl)cc4)cc23)c1F + Cc1cnc(CNC(=O)c2c(=O)c3ccc(N4CCCN(C)CC4)nc3n3c2sc2ccccc23)cn1
14

Look at this compound and give its reported viability, T/C. CC1COCCN1c1cc(C2(O)CC3CCC(C2)O3)c2cnn(-c3ccn[nH]3)c2n1 (stereo not given) + Cc1[nH]c2ccc(F)cc2c1-c1nc2c3cccnc3c3ncccc3c2[nH]1
85

Look at this compound and give its reported viability, T/C. O=C(c1cc(Cc2n[nH]c(=O)c3ccccc23)ccc1F)N1CCN(C(=O)C2CC2)CC1 + Cc1[nH]c2ccc(F)cc2c1-c1nc2c3cccnc3c3ncccc3c2[nH]1
105
